Test: Dynamic light scattering of LNPs: Z-average diameter, number average diameter, PDI
Type: physicochemical
Conditions: LNP, sg:mRNA 1:1, N/P about 6, 50/9/38/3; Table 2, Experiments 2-20
From the text: Dynamic Light Scattering (“DLS”) is used to characterize the polydispersity index (“PDI”) and size of the LNPs of the present disclosure. DLS measures the scattering of light that results from subjecting a sample to a light source. PDI, as determined from DLS measurements, represents the distribution of particle size (around the mean particle size) in a population, with a perfectly uniform population having a PDI of zero. […]
Can you tell me Z-avg (nm) for the items I'm about to list?
One number for each entry, in nm.

Examples from the recorded data:
>  <compound>
CCCCC/C=C\C/C=C\CCCCCCCC(=O)OCC(COC(=O)CCC(OCCCCCCCC)OCCCCCCCC)COC(=O)C1(C)CCN(C)CC1 (stereo not shown)

>  <property>
Z-avg (nm)

>  <test-value>
77

$$$$
>  <compound>
CCCCCCCCCCCCCCOC(=O)CCCCCCCC(=O)OCC(COC(=O)CCC(OCCCCCCCC)OCCCCCCCC)COC(=O)OCCCN(CC)CC (stereo not shown)

>  <property>
Z-avg (nm)

>  <test-value>
95.19

$$$$
>  <compound>
CCCCC/C=C\C/C=C\CCCCCCCC(=O)OCC(COC(=O)CC(CCCCCCCC)CCCCCCCC)COC(=O)OCCCN(CC)CC (stereo not shown)

>  <property>
Z-avg (nm)

>  <test-value>
58.54

$$$$
>  <compound>
CCCCCC/C=C\COC(=O)CCCCCCCC(=O)OCC(COC(=O)CCCC(=O)OC(CCCCCCCC)CCCCCCCC)COC(=O)OCCCN(CC)CC (stereo not shown)

>  <property>
Z-avg (nm)

>  <test-value>
99.01

$$$$
>  <compound>
CCCCCCCCCCOC(=O)CCCCCCCCCC(=O)OCC(COC(=O)CCC(OCCCCCCCC)OCCCCCCCC)COC(=O)OCCCN(CC)CC (stereo not shown)

>  <property>
Z-avg (nm)

>  <test-value>
99.62

$$$$

List Z-avg (nm) for every entry below, keeping the order given.
1. CCCCC/C=C\C/C=C\CCCCCCCC(=O)OCC(COC(=O)CCCCCC(=O)OC(CCCCCCCC)CCCCCCCC)COC(=O)OCCCN(CC)CC (stereo not shown)
2. CCCCCCCCOC(=O)CCCCCCCC(=O)OCC(COC(=O)CCC(OCCCCCCCC)OCCCCCCCC)COC(=O)OCCCN(CC)CC (stereo not shown)
3. CCCCC/C=C\C/C=C\CCCCCCCC(=O)OCC(COC(=O)CCC(OCCCCCCCC)OCCCCCCCC)COC(=O)OCCN(CC)CC (stereo not shown)
4. CCCCCCCCCCOC(=O)CCCCCCCC(=O)OCC(COC(=O)CCCC(=O)OC(CCCCCCCC)CCCCCCCC)COC(=O)OCCC1CCCN1C (stereo not shown)
5. CCCCC/C=C\C/C=C\CCCCCCCC(=O)OCC(COC(=O)CCCCN(CC)CC)COC(=O)CCC(OCCCCCCCC)OCCCCCCCC (stereo not shown)
6. CCCCC/C=C\C/C=C\CCCCCCCC(=O)OCC(COC(=O)CCC(OCCCCCCCC)OCCCCCCCC)COC(=O)NCCCN(CC)CC (stereo not shown)
7. CCCCC/C=C\C/C=C\CCCCCCCC(=O)OCC(COC(=O)CCC(OCCCCCCCC)OCCCCCCCC)COC(=O)OCC1(C)CCCN(CC)C1 (stereo not shown)
8. CCCCC/C=C\C/C=C\CCCCCCCC(=O)OCC(COC(=O)CCC(OCCCCCCCC)OCCCCCCCC)COC(=O)NC1CCCN(C)C1 (stereo not shown)

// result
[85.16, 89.07, 62.99, 98.47, 83, 67.61, 86.72, 74.03]
